Cited source for all entries: patent US20220242958A1

# target: human CXCR4 (on cells, membrane extracts or viral lipoparticles) (human, UniProt P61073 1-352)
# Sequence (P61073 whole entry): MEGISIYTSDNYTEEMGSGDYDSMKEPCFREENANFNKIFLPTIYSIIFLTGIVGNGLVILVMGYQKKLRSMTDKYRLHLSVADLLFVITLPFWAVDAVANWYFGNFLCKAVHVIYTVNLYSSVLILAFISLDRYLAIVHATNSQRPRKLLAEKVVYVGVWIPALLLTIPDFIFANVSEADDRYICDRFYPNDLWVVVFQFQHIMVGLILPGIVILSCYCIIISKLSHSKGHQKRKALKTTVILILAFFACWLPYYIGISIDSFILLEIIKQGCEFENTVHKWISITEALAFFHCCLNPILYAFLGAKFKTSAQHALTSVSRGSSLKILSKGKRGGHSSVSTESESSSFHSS
# assay.explanation: cell-based or functional assay
readout.kind: Fold inc. vs anti-CXCR4 building block, Jurkat E6-1 (fold)

| binder | value.measured |
| --- | --- |
| 57A07-14D09 (A0110057A07-35GS-4CXCR014D09(Q108L)) (bispecific antibody, the entry carries a c-myc-His6 tag; for the cell assays the construct was recloned and made in Pichia as Flag3-His6-tagged protein; also called CD123#1-CXCR4#1; BI#11/23) EVQLVESGGGLVQAGGSLRLSCAASGSIFSGNVMGWYRRQAPGKEREWVAAIASGGSIYYRDSVKGRFTISRDNAKNTVYLQMNSLKPEDTAVYYCNSHPPTLPYWGQGTLVTVSSGGGGSGGGGSGGGGSGGGGSGGGGSGGGGSGGGGSEVQLVESGGGLVQAGGSLRLSCVASGISSSKRNMGWYRQAPGKQRESVATISSGGNKDYTDAVKDRFTISRDTTKNTVYLQMNSLKPEDTAVYYCKIEAGTGWATRRGYTYWGQGTLVTVSSAAAEQKLISEEDLNGAAHHHHHH | 0.05 |
